All figures here come from the supplement of paper PMC6607015.

System: HeLa MZ
MEASUREMENT_NOTES: LBPA endosome anti-LBPA integrated intensity (sum per cell), Z-score; higher = more LBPA staining
CONDITION: compound concentration in added solution (µM; 5 µl added to 20 µl cells): 10; 18 h
Counter-ions that a name gives are not always drawn.
Please respond with reported LBPA endosome anti-LBPA integrated intensity (z-score) for every item in the list.
One number for each entry.

CC(=O)Nc1ccc(OCC(O)CNC(C)C)cc1 (centres undefined): -0.861

Batch request: LBPA endosome anti-LBPA integrated intensity (z-score) for each of the following compounds.
1. NC(N)=Nc1nc(CSCC/C(N)=N/S(N)(=O)=O)cs1
2. OCCN1CCN(CCCN2c3ccccc3C=Cc3ccccc32)CC1 [Opipramol dihydrochloride]
3. CC(C[N+](C)(C)C)OC(N)=O (centres undefined) [Bethanechol chloride]
4. NNc1nncc2ccccc12 [Hydralazine hydrochloride]
5. CC(=O)OCC(=O)NCCCOc1cccc(CN2CCCCC2)c1 [Roxatidine Acetate HCl]
6. C[C@]12CC[C@@H]3c4ccc(O)cc4C[C@@H](CCCCCCCCC[S+]([O-])CCCC(F)(F)C(F)(F)F)[C@H]3[C@@H]1CC[C@@H]2O (some centres undefined)
7. CN1CCCN(C(c2ccccc2)c2ccc(Cl)cc2)CC1 (centres undefined) [Homochlorcyclizine dihydrochloride]

Result:
1. -0.604
2. 1.81
3. -0.64
4. -1.11
5. -0.0177
6. 1.71
7. 1.74

Query: State the recorded LBPA endosome anti-LBPA integrated intensity (z-score) for this entry: CCCCCN(CCCCC)C(=O)C(CCC(=O)O)NC(=O)c1ccc(Cl)c(Cl)c1 (centres undefined) [Lorglumide sodium salt]
Result: 0.0228

* * *

System: HeLa MZ
MEASUREMENT_NOTES: LBPA endosome anti-LBPA integrated intensity (sum per cell), Z-score; higher = more LBPA staining
CONDITION: compound concentration in added solution (µM; 5 µl added to 20 µl cells): 10; 18 h
Where a name gives a salt, the structure may show the parent alone.
I'd be grateful if you could share measured LBPA endosome anti-LBPA integrated intensity (z-score) for these entries.
Give bare numbers.

Study these solved cases before continuing.
CC(=O)S[C@@H]1CC2=CC(=O)CC[C@]2(C)[C@H]2CC[C@@]3(C)[C@@H](CC[C@@]34CCC(=O)O4)[C@H]12 [Spironolactone]: -0.535
Cc1cc(C(C)(C)C)c(O)c(C)c1CC1=NCCN1 [Oxymetazoline hydrochloride]: 0.256
Clc1ccc(CO/N=C(\Cn2ccnc2)c2ccc(Cl)cc2Cl)c(Cl)c1 [Oxiconazole Nitrate]: 1.11

Batch request: LBPA endosome anti-LBPA integrated intensity (z-score) for each of the following compounds.
1. CC(C)C(=O)Nc1ccc([N+](=O)[O-])c(C(F)(F)F)c1 [Flutamide]
2. N=C(N)NC(=O)Cc1c(Cl)cccc1Cl [Guanfacine hydrochloride]
3. CN1CCCCC1CCN1c2ccccc2Sc2ccc([S+](C)[O-])cc21 (stereo not drawn) [Mesoridazine besylate]
4. Nc1nc2c(ncn2COC(CO)CO)c(=O)[nH]1 [Ganciclovir]
5. Nc1ccc(S(=O)(=O)Nc2ccccn2)cc1 [Sulfapyridine]

Result:
1. 0.353
2. 0.0887
3. 2.18
4. 0.382
5. -0.131

* * *

System: HeLa MZ
MEASUREMENT_NOTES: whole-cell filipin (free cholesterol) integrated intensity, Z-score; higher = more cholesterol staining
CONDITION: compound concentration in added solution (µM; 5 µl added to 20 µl cells): 10; 18 h
Structures can show the parent of a compound that is named as a salt.
METRIC_NAME: whole-cell filipin (z-score)
Give bare numbers.

CC(C)NC(=N)NC(=N)Nc1ccc(Cl)cc1 [Proguanil hydrochloride]: 0.372
CCN(CC)CCOC(=O)C1(C2CCCCC2)CCCCC1 [Dicyclomine hydrochloride]: -0.144
COc1cc2nc(N3CCN(C(=O)C4COc5ccccc5O4)CC3)nc(N)c2cc1OC (stereo not given) [Doxazosin mesylate]: 1.62

For every item in the list below, what is its measured whole-cell filipin (z-score)?
1. Cn1c(=O)c2c(ncn2CCO)n(C)c1=O [Etofylline]
2. Cc1cc(CC(=O)O)n(C)c1C(=O)c1ccc(Cl)cc1 [Zomepirac sodium salt]

Result:
1. -1.17
2. 0.00846
